Catalogue of inhibition at 1 µM readings, one per entry.
assayed_system: human μ-opiate receptor (Homo sapiens, UniProt P35372)
Construct: purchased Perkin Elmer, Zaventem, Belgium RB-HOM; host or cells: CHO-K1 cells
Sequence (P35372 whole entry): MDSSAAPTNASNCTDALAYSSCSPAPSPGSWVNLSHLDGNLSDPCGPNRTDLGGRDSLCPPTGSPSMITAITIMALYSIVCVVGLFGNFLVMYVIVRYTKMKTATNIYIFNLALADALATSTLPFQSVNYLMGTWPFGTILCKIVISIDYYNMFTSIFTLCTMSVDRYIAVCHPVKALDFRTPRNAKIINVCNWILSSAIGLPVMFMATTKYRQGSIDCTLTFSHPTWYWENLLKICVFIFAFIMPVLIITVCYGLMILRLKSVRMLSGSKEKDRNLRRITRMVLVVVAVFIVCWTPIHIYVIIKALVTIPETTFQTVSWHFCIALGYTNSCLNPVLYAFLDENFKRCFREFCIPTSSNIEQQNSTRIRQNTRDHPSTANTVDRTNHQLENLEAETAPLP
assay: Affinity for the human μ-opiate receptor, [3H]-naloxone displacement (SPA) on CHO-K1 receptor membrane preparation
Format: binding
experimental_context: 1.5 h, read-out: μ-Opioid receptor affinity (% inhibition at 1 μmol./l), 1 μmol./l test substance; inhibition of specific [3H]-naloxone binding
Your answer should be a plain number; it is taken to be in %.

COc1ccc2c(c1)CC(CN(C)C)C2(O)c1cccnc1 (centres unmarked) : 49
CN(C)CC1Cc2cc(OC(F)(F)F)ccc2C1(O)c1cccnc1 (centres unmarked) : -19

Fill in inhibition at 1 µM for CN(C)CC1=C(c2cccnc2)c2ccc(OC(F)(F)F)cc2C1 tested with human μ-opiate receptor (Homo sapiens, UniProt P35372).
5

Fill in inhibition at 1 µM for CN(C)CC1Cc2ccccc2C1c1cccnc1 (centres unmarked) tested with human μ-opiate receptor (Homo sapiens, UniProt P35372).
31

Fill in inhibition at 1 µM for CN(C)CC1CCCc2ccccc2C1(O)c1cccnc1 (centres unmarked) tested with human μ-opiate receptor (Homo sapiens, UniProt P35372).
20

Fill in inhibition at 1 µM for CN(C)CC1=C(c2cccnc2)c2ccc(C(F)(F)F)cc2C1 tested with human μ-opiate receptor (Homo sapiens, UniProt P35372).
-8

Fill in inhibition at 1 µM for CN(C)CC1Cc2cc(F)ccc2C1(O)c1cccnc1 (centres unmarked) tested with human μ-opiate receptor (Homo sapiens, UniProt P35372).
-6

Fill in inhibition at 1 µM for CN(C)CC1CCS(=O)(=O)c2ccccc2C1(O)c1cccnc1 (centres unmarked) tested with human μ-opiate receptor (Homo sapiens, UniProt P35372).
-13
